tested on: Mycobacterium tuberculosis (H37Rv); assay: Growth in liquid media in presence of test compound; type: cell-based; conditions: 50 mg/L
recorded metric: Growth in the presence of test compound, M. tuberculosis

* Cl.Cl.NCCCC[C@@H](N)C(=O)NC[C@@H](Cc1ccc(OC(F)(F)F)cc1)B(O)O | +
* NCCCC[C@H](N)C(=O)NC[C@@H](Cc1ccccc1)B(O)O | −
* CC1(C)C2CC3OB(CC(CCc4ccccc4)NC(=O)C(N)CCCCN)OC3(C)C1C2 (stereo not shown) | +
* CC1(C)C2CC3OB([C@@H](CNC(=O)[C@H](N)Cc4ccccc4)Cc4ccccc4)O[C@]3(C)C1C2 (stereo partly shown) | ±

* * *

test system: Mycobacterium tuberculosis (H37Rv); assay: Growth in liquid media in presence of test compound; format: cell-based; details: 5 mg/L
recorded metric: Growth in the presence of test compound, M. tuberculosis

Example entries and their recorded answers appear below.
• CC1(C)C2CC3OB(C(CNC(=O)C(N)CCCCN)Cc4ccccc4)OC3(C)C1C2 (stereo not drawn) [Compound 13] = +
• CC1(C)C2CC3OB(CC(Cc4ccccc4)NC(=O)C(N)Cc4c[nH]c5ccccc45)OC3(C)C1C2 (stereo not drawn) [Compound 5] = +
• NCCCC[C@H](N)C(=O)NC[C@@H](CCc1ccccc1)B(O)O [Compound 37] = +
• N[C@@H](Cc1ccccc1)C(=O)N[C@@H](CB(O)O)Cc1ccccc1 [Compound 33] = ±
• NCCCCC(N)C(=O)NC(CB(O)O)Cc1ccccc1 (stereo not drawn) [Compound 34] = +
• CC1(C)C2CC3OB([C@@H](CNC(=O)[C@H](N)CCCCN)Cc4ccccc4)O[C@]3(C)C1C2 (stereo partly drawn) [Compound 12] = ±
• N[C@@H](Cc1ccccc1)C(=O)NC[C@@H](CCc1ccccc1)B(O)O [Compound 39] = +
• Cl.N[C@@H](Cc1ccccc1)C(=O)NC[C@@H](Cc1ccc(F)cc1)B(O)O [Compound 50] = ±

Tested on Mycobacterium tuberculosis (H37Rv), the item CC1(C)C2CC3OB([C@@H](CNC(=O)[C@@H](N)CCCCN)Cc4ccc5ccccc5c4)O[C@]3(C)C1C2 (stereo partly drawn) [Compound 21] showed Growth in the presence of test compound, M. tuberculosis equal to −

Summary: Cl.Cl.NCCCC[C@@H](N)C(=O)NC[C@@H](Cc1ccc(OC(F)(F)F)cc1)B(O)O [Compound 43] , Mycobacterium tuberculosis (H37Rv), Growth in the presence of test compound, M. tuberculosis = +

Growth in the presence of test compound, M. tuberculosis for Mycobacterium tuberculosis (H37Rv) with input CC1(C)C2CC3OB([C@@H](CNC(=O)[C@@H](N)CCCCN)Cc4ccccc4)O[C@]3(C)C1C2 (stereo partly drawn) [Compound 9] equals −

CC1(C)C2CC3OB([C@@H](CNC(=O)[C@@H](N)Cc4ccccc4)Cc4ccccc4)O[C@]3(C)C1C2 (stereo partly drawn) [Compound 10] tested on Mycobacterium tuberculosis (H37Rv) gave Growth in the presence of test compound, M. tuberculosis: −

# value of Growth in the presence of test compound, M. tuberculosis, Mycobacterium tuberculosis (H37Rv), item Cl.Cl.NCCCC[C@H](N)C(=O)NC[C@@H](Cc1ccc(OC(F)(F)F)cc1)B(O)O [Compound 52] = ±

Per the reported Mycobacterium tuberculosis (H37Rv) data, CC(N)C(=O)NC(CB1OC2CC3CC(C3(C)C)C2(C)O1)Cc1ccccc1 (stereo not drawn) [Compound 3] has Growth in the presence of test compound, M. tuberculosis of +

I looked up C[C@H](CNC(=O)[C@@H](N)Cc1ccccc1)B1OC2CC3CC(C3(C)C)[C@@]2(C)O1 (stereo partly drawn) [Compound 17] and its Growth in the presence of test compound, M. tuberculosis for Mycobacterium tuberculosis (H37Rv) was +

Param item: C[C@H](N)C(=O)NC[C@@H](Cc1ccc(OC(F)(F)F)cc1)B1OC2CC3CC(C3(C)C)[C@@]2(C)O1.Cl (stereo partly drawn) [Compound 56] ; param system: Mycobacterium tuberculosis (H37Rv); output Growth in the presence of test compound, M. tuberculosis: +

Here CC(CB1OC2CC3CC(C3(C)C)C2(C)O1)NC(=O)C(N)CCCCN (stereo not drawn) [Compound 6] was tested on Mycobacterium tuberculosis (H37Rv), and its Growth in the presence of test compound, M. tuberculosis came to +

Lab entry: Mycobacterium tuberculosis (H37Rv) assay, compound CC1(C)C2CC3OB([C@@H](CNC(=O)[C@@H](N)CCCNC(=N)N)Cc4ccccc4)O[C@]3(C)C1C2 (stereo partly drawn) [Compound 11] , Growth in the presence of test compound, M. tuberculosis = ±

Tested system Mycobacterium tuberculosis (H37Rv); Growth in the presence of test compound, M. tuberculosis recorded for CC1(C)C2CC3OB([C@@H](CNC(=O)[C@@H](N)Cc4ccccc4)Cc4ccc(F)cc4)O[C@]3(C)C1C2.Cl (stereo partly drawn) [Compound 49] was ±

Summary line: CC1(C)C2CC3OB(CC(Cc4ccccc4)NC(=O)C(N)CCCCN)OC3(C)C1C2 (stereo not drawn) [Compound 44] , Mycobacterium tuberculosis (H37Rv), reported Growth in the presence of test compound, M. tuberculosis = +

For the compound NCCCC[C@H](N)C(=O)NC[C@@H](Cc1ccccc1)B(O)O [Compound 38] , the measured Growth in the presence of test compound, M. tuberculosis on Mycobacterium tuberculosis (H37Rv) was −

Values compiled from patent US20150018311A1.
